- Tested on: KM12 colon
- assay text: NCI-60 one-dose screen, 48 h (100 = growth as untreated, 0 = no growth, -100 = all killed)
- test conditions: 10 µM unless noted
The panel holds about 83,000 compounds, 20% with a hit somewhere; the sample as a whole holds those more often. The source made the active and inactive calls. How the source made its calls: active means growth percent below 10; inactive means the rest.
Documented growth across a set of compounds
assay endpoint: growth

{"compound": "Cc1c(NC(=O)CSc2nc3sc4c(c3c(=O)n2-c2ccc(Cl)cc2)CCCC4)c(=O)n(-c2ccccc2)n1C", "assay endpoint": "growth", "recorded result": "98.7% (inactive)"}
{"compound": "Cc1nc(-c2cc3ccccc3oc2=O)ccc1C(=O)/C=C/c1ccc(Cl)c(Cl)c1", "assay endpoint": "growth", "recorded result": "103% (inactive)"}
{"compound": "Cn1ccnc1C(=O)/C=C/c1ccc(NC(=O)Nc2ccc(F)cc2)cc1", "assay endpoint": "growth", "recorded result": "36.5% (inactive)"}
{"compound": "C/C(=N\\NC(N)=O)c1c(O)sc(=O)[nH]c1=O", "assay endpoint": "growth", "recorded result": "100% (inactive)"}
{"compound": "O=C1NC(=C(Cl)Cl)/C(=N/S(=O)(=O)N2CCCCC2CC2(C(F)(F)F)N=N2)N1 (stereo not given)", "assay endpoint": "growth", "recorded result": "9.36% (active)"}
{"compound": "C#Cc1nc(C2=C(C)C(O)/C(=N/O)C2)cs1 (stereo not given)", "assay endpoint": "growth", "recorded result": "42.9% (inactive)"}
{"compound": "CN(C)CCCNc1c2ccc(Cl)cc2nc2c1oc1ccccc12", "assay endpoint": "growth", "recorded result": "1.73% (active)"}
{"compound": "Cc1ccc(-c2nc(C(Cl)Cl)nc3cc(-c4ccccc4)nn23)cc1", "assay endpoint": "growth", "recorded result": "-6.93% (active)"}
{"compound": "COc1ccc(-c2cc(C(=O)N=Nc3c(O)[nH]c4ccccc34)c3ccccc3n2)cc1OC", "assay endpoint": "growth", "recorded result": "92% (inactive)"}
{"compound": "O=C(Oc1ccc2ccc(=O)oc2c1)c1ccc(Cl)cc1", "assay endpoint": "growth", "recorded result": "108% (inactive)"}
